These measurements were taken from PubChem BioAssay.

Kindly supply the reported GFP response vs DMSO values for the records listed here.
assay_details: modulators of MEP2-GFP levels in yeast, confirmation, S. cerevisiae, flow cytometry GFP, cherry picks (AID 2272);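 further: ratio of well signal to plate DMSO mean so 100% equals DMSO level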
condition_details: S. cerevisiae MEP2-GFP strain, 3 h, at 10 µM, hits give high values
Entry rule: numbers only, all in %.

Give reported GFP response vs DMSO value for CCN(C(=O)c1ccccc1Cl)c1ccccc1
99.3

Give reported GFP response vs DMSO value for O=C(/C=C/c1ccc(-c2ccccc2[N+](=O)[O-])o1)c1ccc(Br)cc1
105

Give reported GFP response vs DMSO value for Cc1c(O)ccc(/C=N/Nc2nc(-c3cccnc3)nc3ccccc23)c1O
102

Give reported GFP response vs DMSO value for O=C1c2cccc3c(N4CCCCC4)ccc(c23)C(=O)N1CCO
105

Give reported GFP response vs DMSO value for CCOC(=O)CSC1=NC(=O)/C(=C/c2ccc(Br)cc2)S1
98.8

Give reported GFP response vs DMSO value for NNC(=O)c1ccc(COc2ccc3ccccc3c2)cc1
99

Give reported GFP response vs DMSO value for Cc1nn2c(N3CCCC3)cc(C(C)C)nc2c1-c1ccccc1
101

Give reported GFP response vs DMSO value for CCN(CC)CCNC(=O)Cn1c(-c2ccccn2)nc2ccccc21
100

Give reported GFP response vs DMSO value for CCOC(=O)c1ccccc1NC(=O)c1c(O)c2ccccc2n(CC)c1=O
102

Give reported GFP response vs DMSO value for CC(=O)OCC(=O)[C@@]1(O)CC[C@H]2[C@@H]3CCC4=CC(=O)CC[C@]4(C)[C@H]3C(=O)C[C@@]21C
100

Give reported GFP response vs DMSO value for O=C(Nc1nc(-c2ccc(F)cc2)cs1)c1cnccn1
110

Give reported GFP response vs DMSO value for Cc1cc(NC(=O)c2cccnc2Cl)ccc1NC(=O)c1cc2ccccc2o1
105

Give reported GFP response vs DMSO value for CC(=O)Oc1oc(-c2ccccc2)nc1C=Nc1ccccc1
97.2

Give reported GFP response vs DMSO value for Cc1cc(C)nc(/N=C(\N)N2CCCCCC2)n1
99.5

Give reported GFP response vs DMSO value for Cc1[nH]n(-c2ncc(-c3ccccc3)s2)c(=O)c1C(c1ccc(Cl)cc1)C(C#N)C#N (stereo not given)
106

Give reported GFP response vs DMSO value for Cc1cc(NCCN2CCOCC2)n2nc(C)c(-c3ccc(Cl)cc3)c2n1
108

Give reported GFP response vs DMSO value for O=C(NNC(=S)NC(=O)C12CC3CC(CC(C3)C1)C2)c1ccncc1
112

Give reported GFP response vs DMSO value for Cc1ccc(NN2C(=O)C=C(c3ccc(Cl)cc3)C2=O)cc1
111

Give reported GFP response vs DMSO value for Cc1ccc(-c2ccc(/C=N/NC(N)=S)o2)cc1
102

Give reported GFP response vs DMSO value for O=C(N=Nc1c(O)[nH]c2ccccc12)c1ccco1
98.8

Give reported GFP response vs DMSO value for COc1cccc(OCC(=O)N2CCCc3ccccc32)c1
99.3

Give reported GFP response vs DMSO value for O=[N+]([O-])c1cc(Cl)ccc1Sc1ccccn1
112

Give reported GFP response vs DMSO value for CC(=O)Oc1ccc(/C=c2\sc3ncnn3c2=O)cc1
101

Give reported GFP response vs DMSO value for CCOc1ccccc1C1N=C(c2ccc(OC)cc2)CC(c2ccccc2O)N1 (stereo not given)
105

Give reported GFP response vs DMSO value for Cc1ccc(N2C3=C(C(=O)CC(C)(C)C3)C(c3cn(C)nc3C)C3=C2CC(C)(C)CC3=O)cc1
131

Give reported GFP response vs DMSO value for O=C(c1ccc([N+](=O)[O-])o1)N1CCN(c2nc3ccc(F)cc3s2)CC1
105

Give reported GFP response vs DMSO value for CCN1CCN(C(=O)C2CCN(c3nnc(C)c4c(C)n(-c5ccc(C)cc5)nc34)CC2)CC1
104

Give reported GFP response vs DMSO value for CNc1nc(-c2ccccc2)cc(C(F)(F)F)c1C#N
104

Give reported GFP response vs DMSO value for Cc1ccccc1NC(=O)c1ccccc1
107

Give reported GFP response vs DMSO value for O=C(Nc1cc(Sc2ccccn2)cc([N+](=O)[O-])c1)c1ccc([N+](=O)[O-])cc1
110

Give reported GFP response vs DMSO value for CC(=O)c1ccc(NC(=O)CN2CCC(NC(=O)C3CCCCC3)CC2)cc1
104

Give reported GFP response vs DMSO value for CCC(=O)N/C(N)=N/c1nc2ccccc2o1
109

Give reported GFP response vs DMSO value for COc1ccc(C(=O)/C=C/c2ccccc2C(F)(F)F)cc1
100

Give reported GFP response vs DMSO value for Cc1cccc(NC(=O)CCCN2C(=O)c3cccc4cccc(c34)C2=O)c1
99

Give reported GFP response vs DMSO value for COc1ccc(C2=CC(=O)N(Nc3ccccc3)C2=O)cc1
107

Give reported GFP response vs DMSO value for O=S(=O)(CCN(CCS(=O)(=O)C(F)(F)F)CC1CCCO1)C(F)(F)F (stereo not given)
118

Give reported GFP response vs DMSO value for CCCC(=O)Nc1ccc(C(=O)/C=C/c2ccc(SC)cc2)cc1
102

Give reported GFP response vs DMSO value for CNc1cc(CSC)nc(SCc2ccc(Cl)cc2Cl)n1
102

Give reported GFP response vs DMSO value for C=CCOc1ccccc1C(=O)/C=C1/C(=O)Nc2ccccc21
94.7

Give reported GFP response vs DMSO value for Cc1onc(-c2ccccc2)c1C(=O)NC(=S)NNC(=O)c1ccco1
102

Give reported GFP response vs DMSO value for O=S(=O)(/N=C(\Sc1ccc(Cl)cc1)c1ccccc1)c1ccccc1
99.3

Give reported GFP response vs DMSO value for O=[N+]([O-])c1ccc(S(=O)(=O)c2cccc(C(F)(F)F)c2)nc1
157

Give reported GFP response vs DMSO value for O=[N+]([O-])c1cc(Cl)c2cccnc2c1O
118

Give reported GFP response vs DMSO value for COCCNC(=O)c1ccc(Cl)c(Cl)c1
100

Give reported GFP response vs DMSO value for CN(c1ccccc1)S(=O)(=O)c1ccc(C(=O)Nc2nnc(-c3ccc(F)cc3)o2)cc1
149
